Measured values drawn from patent US20120237528A1 for this set.

# Study target: T1, recombinant extracellular domain (ECD) of human TF, amino acid 1-219 of the mature chain, C-terminal His6-tag (human, UniProt P13726 33-251)
# T1 construct: expressed in a mammalian system; used for ELISA and Biacore; biotinylated by NHS-ester for the Fab ELISA; also called His6-TF-ECD1-219; HumanTF1-219
# Experiment notes: Biacore
Measured endpoint: pKd
As a rule, pKd stands for the negative log10 of the concentration, concentration in M.

Worked examples, 4 binders total:
Binder	pKd
M1645 (antibody, V domains shown, complete MAb; FR4 is its own entry; also called H22/L283) VH: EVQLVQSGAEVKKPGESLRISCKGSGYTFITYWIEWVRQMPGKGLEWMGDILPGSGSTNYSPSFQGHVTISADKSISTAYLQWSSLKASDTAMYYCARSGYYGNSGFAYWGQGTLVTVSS VL: DIVMTQTPLSLPVTPGEPASISCKSSQSLLYTSNQKNYLTWYLQKPGQSPQLLIYWASTRESGVPDRFSGSGSGTDFTLKISRVEAEDVGVYYCQNDDYWPLTFGQGTKLEIK	10.10
M16 (antibody, V domains shown, complete MAb; FR4 is its own entry; also called H16/L2) VH: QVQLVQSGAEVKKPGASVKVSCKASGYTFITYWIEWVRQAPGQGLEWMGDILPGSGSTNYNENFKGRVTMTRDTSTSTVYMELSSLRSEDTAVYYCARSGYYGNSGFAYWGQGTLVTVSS VL: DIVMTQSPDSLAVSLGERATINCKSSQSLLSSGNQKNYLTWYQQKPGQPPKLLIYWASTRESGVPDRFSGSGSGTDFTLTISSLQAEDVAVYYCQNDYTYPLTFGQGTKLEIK	9.18
M19 (antibody, V domains shown, complete MAb; FR4 is its own entry; also called H16/L5) VH: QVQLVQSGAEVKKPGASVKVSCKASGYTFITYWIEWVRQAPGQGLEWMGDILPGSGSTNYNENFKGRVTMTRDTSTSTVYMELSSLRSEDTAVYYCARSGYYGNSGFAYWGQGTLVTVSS VL: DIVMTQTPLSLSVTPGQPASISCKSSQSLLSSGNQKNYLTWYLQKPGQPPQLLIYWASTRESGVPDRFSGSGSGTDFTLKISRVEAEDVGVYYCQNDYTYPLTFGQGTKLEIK	9.39
M11 (antibody, V domains shown, complete MAb; FR4 is its own entry; also called H15/L4) VH: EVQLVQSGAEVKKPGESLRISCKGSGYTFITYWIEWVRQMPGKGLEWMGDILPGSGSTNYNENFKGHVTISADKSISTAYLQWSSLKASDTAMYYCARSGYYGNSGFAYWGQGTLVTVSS VL: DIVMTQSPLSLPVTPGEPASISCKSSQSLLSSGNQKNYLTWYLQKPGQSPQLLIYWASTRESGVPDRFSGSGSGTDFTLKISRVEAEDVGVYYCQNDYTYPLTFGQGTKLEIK	9.44

Consider the additional binder presented here.
// pKd lookup, binder = M1644 (antibody, V domains shown, complete MAb; FR4 is its own entry; also called H22/L225) VH: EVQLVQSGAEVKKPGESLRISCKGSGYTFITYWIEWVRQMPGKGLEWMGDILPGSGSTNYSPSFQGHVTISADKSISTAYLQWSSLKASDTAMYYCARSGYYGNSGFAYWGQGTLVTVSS VL: DIVMTQTPLSLPVTPGEPASISCKSSQSLLFRPTQKNYLTWYLQKPGQSPQLLIYWASTRESGVPDRFSGSGSGTDFTLKISRVEAEDVGVYYCQNDDSYPLTFGQGTKLEIK , result: 9.92
